Ref: patent US20230365592A1

# tested.system: human PAH with the R408W mutation (Homo sapiens, UniProt P00439, R408W)
# Construct: expressed in transfected cells
# Sequence (P00439 whole entry R408W): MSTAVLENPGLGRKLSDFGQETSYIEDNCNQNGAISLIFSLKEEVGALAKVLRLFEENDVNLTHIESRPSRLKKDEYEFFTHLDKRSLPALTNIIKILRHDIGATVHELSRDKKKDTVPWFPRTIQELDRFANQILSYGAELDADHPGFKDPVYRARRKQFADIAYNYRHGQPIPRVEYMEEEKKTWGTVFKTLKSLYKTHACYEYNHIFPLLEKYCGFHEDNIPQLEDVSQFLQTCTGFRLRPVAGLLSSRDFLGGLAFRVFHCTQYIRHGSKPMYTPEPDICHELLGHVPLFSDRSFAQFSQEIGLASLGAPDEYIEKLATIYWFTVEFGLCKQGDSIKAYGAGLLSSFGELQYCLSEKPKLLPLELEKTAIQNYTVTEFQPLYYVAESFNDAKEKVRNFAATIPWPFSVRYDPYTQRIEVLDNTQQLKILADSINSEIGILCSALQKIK
# protocol: Cell Based Phenylalanine Flux Assay
# stated.conditions: A375 cells expressing human R408W PAH; 24 hrs compound incubation; 13C-Tyrosine by LC-MS; average where tested multiple times; read-out: AC50
Assign AC50 to each entry below.

Data request: Report measured AC50; entry is `O=C(c1cnn2ccccc12)N1CCc2[nH]cnc2[C@H]1c1cc2c(Cl)cccn2n1`
Data returned: < 500 nM

Data request: Report measured AC50; entry is `FC(F)c1cccn2nc([C@@H]3c4nc[nH]c4CCN3c3ncc(C(F)(F)F)cn3)cc12`
Data returned: < 500 nM

Data request: Report measured AC50; entry is `Cc1cccc(-c2nnc(C(=O)N3CCc4[nH]cnc4[C@H]3c3cc4c(C(F)F)cccn4n3)o2)n1`
Data returned: < 500 nM

Data request: Report measured AC50; entry is `Cc1cccn2nc([C@@H]3c4nc[nH]c4CCN3C(=O)c3nnc(-c4cnn(S(=O)(=O)C5CC5)c4)o3)cc12`
Data returned: 500 to 1000 nM

Data request: Report measured AC50; entry is `O=C(c1cnn2cc(C3CC3)ccc12)N1CCc2[nH]cnc2[C@@H]1c1cc2cccc(Cl)n2n1`
Data returned: > 5000 nM

Data request: Report measured AC50; entry is `O=C(c1nnc(-c2cnn(C(F)F)c2)o1)N1CCc2[nH]cnc2[C@H]1c1cc2c(F)cccn2n1`
Data returned: < 500 nM

Data request: Report measured AC50; entry is `Cc1cccn2nc([C@@H]3c4nc[nH]c4CCN3C(=O)c3ccnn3-c3ccccn3)cc12`
Data returned: < 500 nM

Data request: Report measured AC50; entry is `Cc1cccn2nc([C@@H]3c4nc[nH]c4CCN3C(=O)c3nnc(C(C)(C)F)o3)cc12`
Data returned: < 500 nM

Data request: Report measured AC50; entry is `Cn1cc(-c2nnc(C(=O)N3CCc4[nH]cnc4[C@H]3c3cc4cccc(Cl)n4n3)o2)cn1`
Data returned: < 500 nM

Data request: Report measured AC50; entry is `CC(C)(O)c1nc(C(F)F)c(C(=O)N2CCc3[nH]cnc3[C@H]2c2cc3c(Cl)cccn3n2)o1`
Data returned: < 500 nM

Data request: Report measured AC50; entry is `O=C(c1nnc(C2CCC2)o1)N1CCc2[nH]cnc2[C@@H]1c1cc2cccc(F)n2n1`
Data returned: 1000 to 5000 nM

---

# tested.system: human PAH with the R408W mutation (Homo sapiens, UniProt P00439, R408W)
# Construct: expressed in transfected cells
# protocol: Cell Based Phenylalanine Flux Assay
# stated.conditions: A375 cells expressing R408W PAH; 24 hrs with compound, then 20 µM sepiapterin and 800 µM 13C9,15N-Phenylalanine for 4 hours; 13C-Tyrosine by LC-MS; average where tested multiple times; read-out: AC50
measurement.label: AC50

Data request: Report measured AC50; entry is Cc1nnc(C(=O)N2CCc3[nH]cnc3C2c2cc3cccc(Cl)n3n2)o1 (stereo not shown)
Data returned: 1 to 5 µM

Data request: Report measured AC50; entry is O=C(c1nnc(-c2cn[nH]c2)o1)N1CCc2[nH]cnc2[C@H]1c1cc2c(F)cccn2n1 (single isomer, unassigned)
Data returned: 1 to 5 µM

Data request: Report measured AC50; entry is O=C(c1cnc(-c2ncccn2)o1)N1CCc2[nH]cnc2C1c1cc2c(C(F)F)cccn2n1 (stereo not shown)
Data returned: > 5 µM

Data request: Report measured AC50; entry is Cc1nc(C(C)O)oc1C(=O)N1CCc2[nH]cnc2C1c1cc2c(F)cccn2n1 (stereo not shown)
Data returned: 1 to 5 µM

Data request: Report measured AC50; entry is Cc1nc(C(=O)N2CCc3[nH]cnc3C2c2cc3cccc(Cl)n3n2)n(C)n1 (stereo not shown)
Data returned: > 5 µM

Data request: Report measured AC50; entry is Cc1c([C@@H]2c3nc[nH]c3CCN2C(=O)c2nnc(-c3cnn(C)c3C)o2)nn2ccccc12 (single isomer, unassigned)
Data returned: 1 to 5 µM

Data request: Report measured AC50; entry is Fc1cccnc1-c1nnc(N2CCc3[nH]cnc3C2c2cc3c(C(F)F)cccn3n2)o1 (stereo not shown)
Data returned: 1 to 5 µM

Data request: Report measured AC50; entry is CC1(c2nnc(-n3cnc4c3[C@@H](c3cc5ccccn5n3)NCC4)o2)CC1 (single isomer, unassigned)
Data returned: 1 to 5 µM

Data request: Report measured AC50; entry is CC(C)(O)c1nnc(C(=O)N2CCc3[nH]cnc3C2c2cc3cc(C(F)(F)F)ccn3n2)o1 (stereo not shown)
Data returned: > 5 µM

Data request: Report measured AC50; entry is Cc1nnc(C(=O)N2CCc3[nH]cnc3C2c2cc3ccc(C(F)(F)F)cn3n2)o1 (stereo not shown)
Data returned: 1 to 5 µM

Data request: Report measured AC50; entry is O=C(c1nnc(-c2cc[nH]n2)o1)N1CCc2[nH]cnc2[C@H]1c1cc2ccccn2n1 (single isomer, unassigned)
Data returned: 1 to 5 µM

Data request: Report measured AC50; entry is O=C(c1nnc(-c2ccccn2)o1)N1CCc2[nH]cnc2C1c1cc2cc(F)ccn2n1 (stereo not shown)
Data returned: 1 to 5 µM

Data request: Report measured AC50; entry is Cn1nc(C(C)(C)C)cc1C(=O)N1CCc2[nH]cnc2C1c1cc2ccccn2n1 (stereo not shown)
Data returned: 1 to 5 µM

Data request: Report measured AC50; entry is Cn1cncc1-c1nnc(C(=O)N2CCc3[nH]cnc3C2c2cc3cccc(Cl)n3n2)o1 (stereo not shown)
Data returned: 1 to 5 µM

Data request: Report measured AC50; entry is Cc1nc([C@H](C)O)oc1C(=O)N1CCc2[nH]cnc2[C@H]1c1cc2cccc(C)n2n1 (single isomer, unassigned)
Data returned: 1 to 5 µM

Data request: Report measured AC50; entry is Cc1c(C2c3nc[nH]c3CCN2C(=O)c2nnc(-c3ccccn3)o2)nn2ccccc12 (stereo not shown)
Data returned: 1 to 5 µM

Data request: Report measured AC50; entry is Cc1nnc(C(=O)N2CCc3[nH]cnc3C2c2cc3cc(C(F)(F)F)ccn3n2)o1 (stereo not shown)
Data returned: 1 to 5 µM

Data request: Report measured AC50; entry is COc1ccc2c(C(=O)N3CCc4[nH]cnc4C3c3cc4cccc(C(F)F)n4n3)cnn2c1 (stereo not shown)
Data returned: 1 to 5 µM

Data request: Report measured AC50; entry is Cc1cccn2nc([C@@H]3c4nc[nH]c4CCN3c3nnc(-c4ncccn4)o3)cc12 (single isomer, unassigned)
Data returned: 1 to 5 µM

Data request: Report measured AC50; entry is Fc1cccc2cc(C3c4nc[nH]c4CCN3c3nnc(C4CC4)o3)nn12 (stereo not shown)
Data returned: 1 to 5 µM

Data request: Report measured AC50; entry is O=C(c1cnco1)N1CCc2[nH]cnc2C1c1cc2ccc(C(F)(F)F)cn2n1 (stereo not shown)
Data returned: 1 to 5 µM

Data request: Report measured AC50; entry is CC(C)(C)c1nnc(N2CCc3[nH]cnc3C2c2cc3cccc(C(F)(F)F)n3n2)o1 (stereo not shown)
Data returned: > 5 µM

Data request: Report measured AC50; entry is FC(F)(F)c1cccn2nc(C3c4nc[nH]c4CCN3c3nnc(N4CCOCC4)o3)cc12 (stereo not shown)
Data returned: > 5 µM

Data request: Report measured AC50; entry is Cc1nc(C(C)O)oc1C(=O)N1CCc2[nH]cnc2C1c1cc2cccc(Cl)n2n1 (stereo not shown)
Data returned: 1 to 5 µM

Data request: Report measured AC50; entry is Cc1ccc2cc(C3c4nc[nH]c4CCN3C(=O)c3ocnc3C(F)F)nn2c1 (stereo not shown)
Data returned: 1 to 5 µM

---

Assign AC50 to each entry below.
# tested.system: human PAH with the R408W mutation (Homo sapiens, UniProt P00439, R408W)
# Construct: expressed in transfected cells
# protocol: Cell Based Phenylalanine Flux Assay;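 note: after compound treatment, cells received sepiapterin plus isotope-labelled Phenylalanine for 4 hours, then labelled Tyrosine in the medium was quantified, 10-point 2-fold dilution series run in duplicate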
# stated.conditions: A375 cells expressing human PAH R408W; 24 hrs compound incubation; 13C-Tyrosine by LC-MS; average where tested multiple times; read-out: AC50

Data request: For human PAH with the R408W mutation (Homo sapiens, UniProt P00439, R408W), give AC50 of the listed compound: `COCc1ccc2c(C(=O)N3CCc4[nH]cnc4[C@H]3c3cc4c(C)cccn4n3)cnn2c1`
Data returned: 1000 to 5000 nM

Data request: For human PAH with the R408W mutation (Homo sapiens, UniProt P00439, R408W), give AC50 of the listed compound: `CC(C)c1cccn2nc([C@@H]3c4nc[nH]c4CCN3c3nnc(-c4cccnc4F)o3)cc12`
Data returned: 500 to 1000 nM

Data request: For human PAH with the R408W mutation (Homo sapiens, UniProt P00439, R408W), give AC50 of the listed compound: `COc1cccn2nc([C@@H]3c4nc[nH]c4CCN3C(=O)c3cnn4cc(C)ccc34)cc12`
Data returned: 1000 to 5000 nM

Data request: For human PAH with the R408W mutation (Homo sapiens, UniProt P00439, R408W), give AC50 of the listed compound: `Cn1ccc(-c2ncc(C(=O)N3CCc4[nH]cnc4[C@H]3c3cc4c(C(F)(F)F)cccn4n3)o2)n1`
Data returned: 500 to 1000 nM

Data request: For human PAH with the R408W mutation (Homo sapiens, UniProt P00439, R408W), give AC50 of the listed compound: `O=C(c1nnc(-c2ccn(C(F)F)n2)o1)N1CCc2[nH]cnc2[C@H]1c1cc2c(C3CC3)cccn2n1`
Data returned: < 500 nM

Data request: For human PAH with the R408W mutation (Homo sapiens, UniProt P00439, R408W), give AC50 of the listed compound: `FC(F)(F)Oc1cccn2nc([C@@H]3c4nc[nH]c4CCN3c3nnc(C(F)(F)F)o3)cc12`
Data returned: < 500 nM

Data request: For human PAH with the R408W mutation (Homo sapiens, UniProt P00439, R408W), give AC50 of the listed compound: `Cn1nc(C(F)(F)F)nc1C(=O)N1CCc2[nH]cnc2[C@H]1c1cc2c(F)cccn2n1`
Data returned: 1000 to 5000 nM

Data request: For human PAH with the R408W mutation (Homo sapiens, UniProt P00439, R408W), give AC50 of the listed compound: `CC(F)(F)c1nnc(N2CCc3[nH]cnc3[C@H]2c2cc3c(C4CC4)cccn3n2)o1`
Data returned: < 500 nM

Data request: For human PAH with the R408W mutation (Homo sapiens, UniProt P00439, R408W), give AC50 of the listed compound: `Cc1ncccc1-c1nnc(N2CCc3[nH]cnc3[C@H]2c2cc3c(C(C)C)cccn3n2)o1`
Data returned: 500 to 1000 nM

Data request: For human PAH with the R408W mutation (Homo sapiens, UniProt P00439, R408W), give AC50 of the listed compound: `Cc1cccn2nc([C@H]3c4nc[nH]c4CCN3C(=O)[C@@H]3CC3(F)F)cc12`
Data returned: > 5000 nM

Data request: For human PAH with the R408W mutation (Homo sapiens, UniProt P00439, R408W), give AC50 of the listed compound: `Cn1cc(-c2nnc(C(=O)N3CCc4[nH]cnc4[C@@H]3c3cc4ccc(C(F)(F)F)cn4n3)o2)cn1`
Data returned: 1000 to 5000 nM

Data request: For human PAH with the R408W mutation (Homo sapiens, UniProt P00439, R408W), give AC50 of the listed compound: `CC(C)(F)c1nnc(C(=O)N2CCc3[nH]cnc3[C@@H]2c2cc3ccc(C(F)(F)F)cn3n2)o1`
Data returned: 1000 to 5000 nM

Data request: For human PAH with the R408W mutation (Homo sapiens, UniProt P00439, R408W), give AC50 of the listed compound: `Clc1cccn2nc([C@H]3c4nc[nH]c4CCN3c3nnc(C4CCC4)o3)cc12`
Data returned: > 5000 nM

Data request: For human PAH with the R408W mutation (Homo sapiens, UniProt P00439, R408W), give AC50 of the listed compound: `Cc1cccn2nc([C@H]3c4nc[nH]c4CCN3c3ccc(C(F)(F)F)cn3)cc12`
Data returned: > 5000 nM

Data request: For human PAH with the R408W mutation (Homo sapiens, UniProt P00439, R408W), give AC50 of the listed compound: `CN(C)CCc1ccc2c(C(=O)N3CCc4[nH]cnc4[C@H]3c3cc4c(C(F)(F)F)cccn4n3)cnn2c1`
Data returned: 1000 to 5000 nM

Data request: For human PAH with the R408W mutation (Homo sapiens, UniProt P00439, R408W), give AC50 of the listed compound: `Cc1cccn2nc([C@@H]3c4nc[nH]c4CCN3c3ccc(C(F)(F)F)cn3)cc12`
Data returned: < 500 nM

Data request: For human PAH with the R408W mutation (Homo sapiens, UniProt P00439, R408W), give AC50 of the listed compound: `Cn1ccc(-c2nnc(C(=O)N3CCc4[nH]cnc4[C@H]3c3cc4ccccn4n3)s2)n1`
Data returned: < 500 nM
